Values were extracted from paper PMC11284800.

# Emax values compiled below
# systemName: hCB1R (Homo sapiens, UniProt P21554)
# Sequence (P21554 whole entry): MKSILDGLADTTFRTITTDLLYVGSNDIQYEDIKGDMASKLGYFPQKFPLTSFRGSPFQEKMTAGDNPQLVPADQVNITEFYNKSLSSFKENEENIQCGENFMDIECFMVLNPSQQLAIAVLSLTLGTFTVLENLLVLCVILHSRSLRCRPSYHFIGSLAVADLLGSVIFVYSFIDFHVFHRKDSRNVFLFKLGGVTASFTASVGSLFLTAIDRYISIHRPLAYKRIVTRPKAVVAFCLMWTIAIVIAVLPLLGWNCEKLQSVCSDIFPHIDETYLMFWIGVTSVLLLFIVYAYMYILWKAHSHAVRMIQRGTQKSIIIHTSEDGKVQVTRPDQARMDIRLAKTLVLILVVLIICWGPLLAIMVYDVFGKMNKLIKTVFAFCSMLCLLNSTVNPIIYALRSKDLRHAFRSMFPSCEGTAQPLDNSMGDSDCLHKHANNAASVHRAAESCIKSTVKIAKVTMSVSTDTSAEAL
# protocolDescription: HTRF cAMP assay, antagonist mode (forskolin with CP55,940)
# experimentalConditions: read-out: Variation of Emax
Number only, in %; omit the unit.

| compound | Emax, % |
| --- | --- |
| CCC(CC)(NC(=O)c1cc(-c2cc(C(F)(F)F)ccc2C(F)(F)F)n(C[C@H]2CCCO2)c1C)C(=O)NCCOCCOCCNc1ccc([N+](=O)[O-])c2nonc12 [Compound 28] | -97 |

query: Fill in the blank: the reported Emax of CCC(CC)(NC(=O)c1cc(-c2cc(C(F)(F)F)ccc2C(F)(F)F)n(C[C@H]2CCCO2)c1C)C(=O)NCCOCCOCCNC(=O)c1ccc2c(c1)C(=O)OC21c2ccc(N(C)C)cc2Oc2cc(N(C)C)ccc21 [Compound 29] is ____.
result: -88

query: Fill in the blank: the reported Emax of CCOC(=O)C(CC)(CC)NC(=O)c1cc(-c2cc(C(F)(F)F)ccc2C(F)(F)F)n(C[C@H]2CCCO2)c1C [Compound 14] is ____.
result: -107

----------
# protocolDescription: Photophysical characterization in PBS
# Assay type: physicochemical
# experimentalConditions: PBS pH 7.4
hey, just use T if measured Abs (absorbance maximum) is less than 500 nm, otherwise F

Example cases with answers are listed next.
| molecule | class |
| --- | --- |
| CCC(CC)(NC(=O)c1cc(-c2cc(C(F)(F)F)ccc2C(F)(F)F)n(C[C@H]2CCCO2)c1C)C(=O)NCCOCCOCCNc1ccc([N+](=O)[O-])c2nsnc12 [Compound 51] | T |
| CCC(CC)(NC(=O)c1cc(-c2cc(C(F)(F)F)ccc2C(F)(F)F)n(C[C@H]2CCCO2)c1C)C(=O)NCCOCCOCCNc1ccc([N+](=O)[O-])c2n[nH]nc12 [Compound 52] | T |
| CCC(CC)(NC(=O)c1cnc(OCCOC)c(-c2ccc(Cl)cc2)n1)C(=O)NCCOCCOCCNC(=O)c1ccc2c(c1)C(=O)OC21c2ccc(N(C)C)cc2Oc2cc(N(C)C)ccc21 [Compound 35] | F |
| CCC(CC)(NC(=O)c1cc(-c2cc(C(F)(F)F)ccc2C(F)(F)F)n(C[C@H]2CCCO2)c1C)C(=O)NCCOCCOCCNc1ccc([N+](=O)[O-])c2nonc12 [Compound 28] | T |
| CCC(CC)(NC(=O)c1cc(-c2cc(C(F)(F)F)ccc2C(F)(F)F)n(C[C@H]2CCCO2)c1C)C(=O)NCCOCCOCCNC(=O)c1ccc2c(c1)C(=O)OC21c2ccc(N(C)C)cc2Oc2cc(N(C)C)ccc21 [Compound 29] | F |

query: Is Abs (absorbance maximum) of CCC(CC)(NC(=O)c1nn(-c2ccc(Cl)cc2Cl)c(-c2ccc(Cl)cc2)c1C)C(=O)NCCOCCOCCNc1ccc([N+](=O)[O-])c2nonc12 [Compound 30] strictly below 500 nm?
result: T

query: Is Abs (absorbance maximum) of CCC(CC)(NC(=O)c1cnc(OCCOC)c(-c2ccc(Cl)cc2)n1)C(=O)NCCOCCOCCNc1ccc([N+](=O)[O-])c2nonc12 [Compound 34] strictly below 500 nm?
result: T

query: Is Abs (absorbance maximum) of CCC(CC)(NC(=O)c1nn(Cc2cccc(F)c2)c2ccccc12)C(=O)NCCOCCOCCNc1ccc([N+](=O)[O-])c2nonc12 [Compound 36] strictly below 500 nm?
result: T

query: Is Abs (absorbance maximum) of CCC(CC)(NC(=O)c1nn(-c2ccc(Cl)cc2Cl)c2c1CCCc1cc(Cl)ccc1-2)C(=O)NCCOCCOCCNC(=O)c1ccc2c(c1)C(=O)OC21c2ccc(N(C)C)cc2Oc2cc(N(C)C)ccc21 [Compound 33] strictly below 500 nm?
result: F

query: Is Abs (absorbance maximum) of CCC(CC)(NC(=O)c1cnc(OCC2CC2)c(-c2ccc(F)cc2)c1)C(=O)NCCOCCOCCNc1ccc([N+](=O)[O-])c2nonc12 [Compound 40] strictly below 500 nm?
result: T

query: Is Abs (absorbance maximum) of CCC(CC)(NC(=O)c1nn(-c2ccc(Cl)cc2Cl)c(-c2ccc(Cl)cc2)c1C)C(=O)NCCOCCOCCNC(=O)c1ccc2c(c1)C(=O)OC21c2ccc(N(C)C)cc2Oc2cc(N(C)C)ccc21 [Compound 31] strictly below 500 nm?
result: F

query: Is Abs (absorbance maximum) of CCC(CC)(NC(=O)c1cnc(OCC2CC2)c(-c2ccc(F)cc2)c1)C(=O)NCCOCCOCCNC(=O)c1ccc2c(c1)C(=O)OC21c2ccc(N(C)C)cc2Oc2cc(N(C)C)ccc21 [Compound 41] strictly below 500 nm?
result: F
